Entries with their measured IC50, system FL hMALT1 enzyme (Homo sapiens (Human)):

Some entries whose results are on file:
| compound | IC50 |
| --- | --- |
| CC[C@@H]1CN(C(=O)Nc2cnc(-n3nccn3)c(Cl)c2)c2cncc(Br)c2N1C | 50 nM |
| N#Cc1cccc2c1CCCN2C(=O)Nc1cnc(-n2nccn2)c(Cl)c1 | 1200 nM |
| O=C(Nc1cnc(-n2nccn2)c(C(F)(F)F)c1)N1CCCc2c(-c3nncs3)cccc21 | 8200 nM |
| Cc1ncc2c(c1C#N)OC(C(F)(F)F)CN2C(=O)Nc1ccnc(C(F)(F)F)c1 (stereo not shown) | 820 nM |
| O=C(Nc1cnc(-n2nccn2)c(C(F)(F)F)c1)N1CCOc2c(Br)cccc21 | 400 nM |

Each of the following entries comes with a recorded value; kindly state IC50 for each.
1. CN1CCN(C(=O)Nc2cnc(-n3nccn3)c(Cl)c2)c2cccc(Br)c21
2. CC1CN(C(=O)Nc2cnc(-n3nccn3)c(C(F)(F)F)c2)c2cccc(Br)c2O1 (stereo not shown)
3. CC1(C)CN(C(=O)Nc2cnc(-n3nccn3)c(Cl)c2)c2cncc(C3CC3)c2O1

1: 900 nM; 2: 120 nM; 3: 340 nM
